Measured ICW 2 of individual entries
Target: EGFR (Homo sapiens)
Construct: host or cells: A431
Sequence (P00533 25-1210): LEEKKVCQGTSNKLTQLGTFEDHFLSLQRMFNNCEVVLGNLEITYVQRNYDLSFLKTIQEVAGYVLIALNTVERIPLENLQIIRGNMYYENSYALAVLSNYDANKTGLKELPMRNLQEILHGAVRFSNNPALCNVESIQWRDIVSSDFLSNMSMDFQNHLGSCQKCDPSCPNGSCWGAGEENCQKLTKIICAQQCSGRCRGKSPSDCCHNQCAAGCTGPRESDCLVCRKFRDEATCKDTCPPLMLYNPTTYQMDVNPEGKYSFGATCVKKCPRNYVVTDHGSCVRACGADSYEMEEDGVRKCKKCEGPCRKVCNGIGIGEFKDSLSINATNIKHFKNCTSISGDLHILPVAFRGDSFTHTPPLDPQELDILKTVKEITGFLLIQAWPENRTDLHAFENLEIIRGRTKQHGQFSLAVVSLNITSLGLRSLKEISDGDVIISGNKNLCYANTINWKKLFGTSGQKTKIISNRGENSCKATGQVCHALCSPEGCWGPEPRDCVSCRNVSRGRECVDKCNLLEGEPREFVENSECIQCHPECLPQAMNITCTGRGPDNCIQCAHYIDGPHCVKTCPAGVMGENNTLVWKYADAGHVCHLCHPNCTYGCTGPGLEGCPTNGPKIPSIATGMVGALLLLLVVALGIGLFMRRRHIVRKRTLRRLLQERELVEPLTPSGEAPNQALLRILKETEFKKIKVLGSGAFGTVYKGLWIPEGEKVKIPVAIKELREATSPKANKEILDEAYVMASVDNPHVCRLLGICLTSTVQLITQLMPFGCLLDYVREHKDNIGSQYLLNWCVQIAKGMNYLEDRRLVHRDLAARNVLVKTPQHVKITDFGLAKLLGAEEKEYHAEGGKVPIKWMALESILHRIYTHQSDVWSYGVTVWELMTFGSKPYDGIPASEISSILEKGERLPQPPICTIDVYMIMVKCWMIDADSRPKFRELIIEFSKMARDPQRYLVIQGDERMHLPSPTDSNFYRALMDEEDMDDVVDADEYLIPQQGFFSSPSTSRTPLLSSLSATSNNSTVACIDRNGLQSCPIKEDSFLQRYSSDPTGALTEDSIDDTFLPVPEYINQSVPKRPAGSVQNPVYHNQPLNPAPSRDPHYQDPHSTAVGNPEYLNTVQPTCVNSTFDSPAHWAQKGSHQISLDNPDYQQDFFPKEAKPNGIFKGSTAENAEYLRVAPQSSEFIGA
Assay: EGFR in-cell Western (ICW) screening protocol (EGFR inhibition assay)
Type: cell-based
Parameters: unit not given here
Settings: ICW assay, run 2
Where a name gives a salt, the structure may show the parent alone.

>>> result("CCc1c(C)nc(Nc2nc(C)c3ccc(C)cc3n2)[nH]c1=O [12665 + TFA]")
37.29

Query string: Give the measured ICW 2 of CCCc1cc(=O)[nH]c(Nc2nc(C)c3ccc(C)cc3n2)n1 [compound 12674] .
Result string: 51.69

Query string: Give the measured ICW 2 of CCCc1c(C)nc(Nc2nc(C)c3cccc(C)c3n2)[nH]c1=O [compound 12742] .
Result string: 64.92

Query string: Give the measured ICW 2 of Cc1cc(C)c2nc(Nc3nc4c(c(=O)[nH]3)CCCC4)nc(C)c2c1 [11483 + TFA] .
Result string: 28.99

Query string: Give the measured ICW 2 of Cc1ccc2c(O)nc(Nc3nc(C)cc(-c4ccccc4)n3)nc2c1 [12693 + TFA] .
Result string: 74.00

Query string: Give the measured ICW 2 of O=c1cc(C(F)(F)F)[nH]c(Nc2nc(-c3ccccc3)c3cc(Cl)ccc3n2)n1 [11759 + TFA] .
Result string: 26.39
